experimental system: T1, DVL1, O14640
T1 sequence (O14640 246-333, limits assumed, looked up): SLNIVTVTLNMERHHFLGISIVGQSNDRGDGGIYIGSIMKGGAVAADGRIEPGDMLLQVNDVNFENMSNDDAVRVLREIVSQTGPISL
assay details: holdup assay
Design: key: below the threshold = too weak to quantify, mostly under pKd 3.1 to 4
measurement setup: plain residues with an end cap or a label only (N-terminal biotin on a linker: ttds)
value kind: pKd

binder="SRPQRTQTQV [HPV67-E6, A4U7F2]" observed_value="below the threshold"
binder="SVWLRKETRV [CYSLTR2, Q9NS75]" observed_value=4.32
binder="QSARYRDTEL [TJP2, Q9UDY2]" observed_value="below the threshold"

Every entry's value here was drawn from paper PMC9482650.
